- System: Raji
- test protocol: IC50 of ICT in cell lines
- Type: cell-based
- measurement setup: Homo sapiens
readout label: IC50 (µM)
Quick reminder: number only, in µM, skip the unit.

Reported IC50 for COc1ccc(-c2oc3c(CCC(C)(C)O)c(O)cc(O)c3c(=O)c2O)cc1 was 25.6
